B1: TPR 5TU (parent)
chain: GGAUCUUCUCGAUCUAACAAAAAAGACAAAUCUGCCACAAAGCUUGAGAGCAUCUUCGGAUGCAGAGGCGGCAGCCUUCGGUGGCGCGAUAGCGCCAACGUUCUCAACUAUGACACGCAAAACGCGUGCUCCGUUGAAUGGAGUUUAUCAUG

variants of: B1; experiment: polymerase ribozyme fitness, log enrichment relative to wild type (log ratio); higher = more active; in vitro selection for triplet polymerase activity
This sample holds only a part of the variants without activity.
observed-property: polymerase ribozyme fitness (log ratio)
Just the number.

Query :: Suppose we examine the variant U6C C8U U15G ; what polymerase ribozyme fitness (log ratio) value has been reported?
Result :: -2.42

Query :: Quick one: polymerase ribozyme fitness (log ratio) for G59A A110U ?
Result :: -3.64

Query :: Which measured polymerase ribozyme fitness (log ratio) value corresponds to C18U A41G C85A U134A ?
Result :: -3.02

Query :: Can you share its polymerase ribozyme fitness (log ratio)? I mean this variant: C57U C75U
Result :: 0.237

Query :: If you can, please state the reported polymerase ribozyme fitness (log ratio) value of A22U C54U U55A .
Result :: 0.0331

Query :: May I ask what polymerase ribozyme fitness (log ratio) has been recorded for C54U C76A ?
Result :: -0.561

Query :: Quick check: polymerase ribozyme fitness (log ratio) of A20G C125A ?
Result :: -0.707

Query :: Quick one: polymerase ribozyme fitness (log ratio) for A20G C69U G84C G126C G136A ?
Result :: -1.72
